System: CV-B3
Assay: microbe, parasite or virus in culture
Format: cell-based, coxsackievirus B3
Conditions: Enterovirus B, CVB3, HeLa R19, read-out: Table in Figure 7A, CV-B3, exp1-exp3
Property: EC50 (nM)
A number alone suffices; assume nM.

Task: Look up and report EC50, with CV-B3 as system, for O=C(c1cc[nH]c1)N(Cc1ccc(F)cc1)c1ccccc1 [Compound 12b]
Result: 2.98

====

Tested on: EV-D68
Assay: microbe, parasite or virus in culture
Type: cell-based, enterovirus D68
Details: Enterovirus D, EVD68, HeLa R19, read-out: EC50 EV-D68 strain 4311000742
Property: EC50
Give me the value, and tack the unit on after it.

Task: Provide EC50 value for the following compound: O=C(c1ccco1)N(Cc1ccc(C(F)(F)F)cc1)c1ccccc1 [Compound 19d]
Result: 3910 nM

Task: Provide EC50 value for the following compound: "COc1ccc(N(Cc2ccc(F)cc2)C(=O)c2ccco2)cc1"
Result: 3830 nM

Task: Provide EC50 value for the following compound: O=C(c1ccco1)N(Cc1ccc(F)cc1)c1ccccc1 [Compound 19b]
Result: 1310 nM

Task: Provide EC50 value for the following compound: COc1ccc(N(Cc2ccc(F)cc2)C(=O)c2cc[nH]c2)cc1 [Compound 12a]
Result: 1860 nM

====

Answer each item with its documented SERT, Mean as % (Figure 8B).
Biological target: human SERT (Homo sapiens)
Construct: expressed in transfected cells; host or cells: HEK293 (gift of Dr. Hoener, F. Hoffmann-La Roche)
Sequence (P31645 whole entry): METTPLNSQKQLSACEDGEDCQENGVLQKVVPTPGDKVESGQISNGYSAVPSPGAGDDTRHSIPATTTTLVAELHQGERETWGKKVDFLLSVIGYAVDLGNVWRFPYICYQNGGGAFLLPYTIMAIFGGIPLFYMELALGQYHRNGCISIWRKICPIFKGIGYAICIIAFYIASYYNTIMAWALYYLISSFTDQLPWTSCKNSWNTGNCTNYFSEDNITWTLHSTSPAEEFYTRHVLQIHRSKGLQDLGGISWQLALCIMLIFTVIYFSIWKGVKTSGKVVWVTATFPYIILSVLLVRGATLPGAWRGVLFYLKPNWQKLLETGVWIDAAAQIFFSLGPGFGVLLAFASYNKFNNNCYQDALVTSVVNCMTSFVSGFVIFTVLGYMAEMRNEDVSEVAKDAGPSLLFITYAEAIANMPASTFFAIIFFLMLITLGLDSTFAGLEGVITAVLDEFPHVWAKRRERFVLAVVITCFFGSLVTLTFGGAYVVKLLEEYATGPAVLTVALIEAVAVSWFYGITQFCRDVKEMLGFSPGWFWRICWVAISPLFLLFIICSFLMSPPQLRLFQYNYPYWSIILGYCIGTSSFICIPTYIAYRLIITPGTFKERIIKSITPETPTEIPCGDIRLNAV
Type: cell-based
Settings: 1µM; Control = 100%
A number alone suffices; assume %.

Task: Provide SERT, Mean as % (Figure 8B) value for the following molecule: O=C(c1ccco1)N(Cc1ccc(F)cc1)c1ccccc1 [Compound 19b]
Result: 104

Task: Provide SERT, Mean as % (Figure 8B) value for the following molecule: O=C(c1ccco1)N(Cc1ccc(C(F)(F)F)cc1)c1ccccc1 [Compound 19d]
Result: 105

Task: Provide SERT, Mean as % (Figure 8B) value for the following molecule: O=C(c1cc[nH]c1)N(Cc1ccc(F)cc1)c1ccccc1 [Compound 12b]
Result: 89

Task: Provide SERT, Mean as % (Figure 8B) value for the following molecule: COc1ccc(N(Cc2ccc(F)cc2)C(=O)c2cc[nH]c2)cc1 [Compound 12a]
Result: 99

====

System: CV-B3
Assay: microbe, parasite or virus in culture
Format: cell-based, coxsackievirus B3
Details: read-out: EC50 Exp2
Property: EC50 (nM)
A number alone suffices; assume nM.

Task: Look up and report EC50, with CV-B3 as system, for COc1ccc(N(Cc2ccc(F)cc2)C(=O)c2cc[nH]c2)cc1 [Compound 12a]
Result: 210

====

Assay: in vitro
Conditions: monkey, Exp 1 CC50 BGM
Property: CC50 (µM)
A number alone suffices; assume µM.

Task: Provide CC50 value for the following compound: CC(C)c1ccc(CN(C(=O)c2ccco2)c2ccccc2)cc1 [Compound 19h]
Result: 45.4

Task: Provide CC50 value for the following compound: "COc1ccc(N(Cc2ccc(F)cc2)C(=O)c2ccco2)cc1"
Result: 51

Task: Provide CC50 value for the following compound: O=C(c1ccco1)N(Cc1ccc(C(F)(F)F)cc1)c1ccccc1 [Compound 19d]
Result: 91.1

Task: Provide CC50 value for the following compound: COc1ccc(N(Cc2ccc(C(F)(F)F)cc2)C(=O)c2ccco2)cc1 [Compound 19e]
Result: 55

Task: Provide CC50 value for the following compound: O=C(c1ccco1)N(Cc1ccc(S(F)(F)(F)(F)F)cc1)c1ccccc1 [Compound 19f]
Result: 30.5

Task: Provide CC50 value for the following compound: O=C(c1ccco1)N(Cc1ccccc1)c1ccc(C(F)(F)F)cc1 [Compound 19i]
Result: 55.3

Task: Provide CC50 value for the following compound: "COc1ccc(N(Cc2ccc(F)cc2)C(=O)c2ccc[nH]2)cc1"
Result: 58

Task: Provide CC50 value for the following compound: "COc1ccc(N(Cc2ccc(F)cc2)C(=O)c2cccs2)cc1"
Result: 65

====

Answer each item with its documented CC50.
Assay: in vitro
Settings: human, Exp 2 CC50 HelaR19
A number alone suffices; assume µM.

Task: Provide CC50 value for the following molecule: "COc1ccc(N(Cc2ccc(F)cc2)C(=O)c2ccco2)cc1"
Result: 47.4

Task: Provide CC50 value for the following molecule: COc1ccc(N(Cc2ccc(C(F)(F)F)cc2)C(=O)c2ccco2)cc1 [Compound 19e]
Result: 55

Task: Provide CC50 value for the following molecule: O=C(c1ccco1)N(Cc1ccc(C(F)(F)F)cc1)c1ccccc1 [Compound 19d]
Result: 95

Task: Provide CC50 value for the following molecule: O=C(c1ccco1)N(Cc1ccccc1)c1ccc(C(F)(F)F)cc1 [Compound 19i]
Result: 69

Task: Provide CC50 value for the following molecule: "COc1ccc(N(Cc2ccc(F)cc2)C(=O)c2cccs2)cc1"
Result: 54.1

====

Test: in vitro
Settings: human, Exp 2 CC50 HelaR19
Property: CC50

Task: Provide CC50 value for the following molecule: CC(C)c1ccc(CN(C(=O)c2ccco2)c2ccccc2)cc1 [Compound 19h]
Result: 41 µM

Task: Provide CC50 value for the following molecule: O=C(c1ccco1)N(Cc1ccc(S(F)(F)(F)(F)F)cc1)c1ccccc1 [Compound 19f]
Result: 34 µM

Task: Provide CC50 value for the following molecule: "COc1ccc(N(Cc2ccc(F)cc2)C(=O)c2ccc[nH]2)cc1"
Result: > 100 µM

Task: Provide CC50 value for the following molecule: Cc1ccc(CN(C(=O)c2ccco2)c2ccccc2)cc1 [Compound 19g]
Result: > 100 µM

Task: Provide CC50 value for the following molecule: "O=C(c1ccc[nH]1)N(Cc1ccc(C(F)(F)F)cc1)c1ccccc1"
Result: > 100 µM

Task: Provide CC50 value for the following molecule: O=C(c1ccco1)N(Cc1ccccc1)c1ccccc1 [Compound 19a, N-Benzyl-N-phenylfuran-2-carboxamide]
Result: > 100 µM

====

Notes on cytotoxicity (in words) obtained with HeLa R19 cells.
Property: cytotoxicity (in words)

COc1ccc(N(Cc2ccc(F)cc2)C(=O)c2ccccn2)cc1    no cytotoxicity
COc1ccc(N(Cc2ccc(F)cc2)C(=O)c2cc[nH]c2)cc1 [Compound 12a]    no cytotoxicity
COc1ccc(N(Cc2ccc(F)cc2)C(=O)c2ccc[nH]2)cc1    no cytotoxicity

====

Answer each item with its documented EC50.
System: CV-A24v
Assay: microbe, parasite or virus in culture
Assay type: cell-based, coxsackievirus A24v
Settings: Coxsackievirus, HeLa R19, read-out: EC50 CV-A24v strain 110386
A number alone suffices; assume nM.

Task: Look up and report EC50, with CV-A24v as system, for O=C(c1ccco1)N(Cc1ccc(F)cc1)c1ccccc1 [Compound 19b]
Result: 2530

Task: Look up and report EC50, with CV-A24v as system, for O=C(c1ccco1)N(Cc1ccc(C(F)(F)F)cc1)c1ccccc1 [Compound 19d]
Result: 15700

Task: Look up and report EC50, with CV-A24v as system, for COc1ccc(N(Cc2ccc(F)cc2)C(=O)c2cc[nH]c2)cc1 [Compound 12a]
Result: 1940

====

Test system: CV-A24
Assay: microbe, parasite or virus in culture
Assay type: cell-based, coxsackievirus A24
Details: Enterovirus C, CVA24, HeLa R19, read-out: EC50 CV-A24 strain Joseph
Answer each item with its documented EC50.
A number alone suffices; assume µM.

Task: Provide EC50 value for the following molecule: O=C(c1ccco1)N(Cc1ccc(F)cc1)c1ccccc1 [Compound 19b]
Result: 4.99

Task: Provide EC50 value for the following molecule: COc1ccc(N(Cc2ccc(F)cc2)C(=O)c2cc[nH]c2)cc1 [Compound 12a]
Result: 3.45

Task: Provide EC50 value for the following molecule: O=C(c1ccco1)N(Cc1ccc(C(F)(F)F)cc1)c1ccccc1 [Compound 19d]
Result: 18.7

====

Tested on: CV-B3
Assay: microbe, parasite or virus in culture
Type: cell-based, coxsackievirus B3
Conditions: Enterovirus B, CVB3, HeLa R19, read-out: EC50 HelaR19 Average
Answer each item with its documented pEC50.
As a rule, pEC50 stands for the negative log10 of the concentration, concentration in M.

Task: Provide pEC50 value for the following compound: "COc1ccc(N(Cc2ccc(F)cc2)C(=O)c2ccccn2)cc1"
Result: 5.05

Task: Provide pEC50 value for the following compound: O=C(c1ccco1)N(Cc1ccc(S(F)(F)(F)(F)F)cc1)c1ccccc1 [Compound 19f]
Result: 5.48

Task: Provide pEC50 value for the following compound: "COc1ccc(N(Cc2ccc(F)cc2)C(=O)c2ccc[nH]2)cc1"
Result: 5.32

Task: Provide pEC50 value for the following compound: O=C(c1ccco1)N(Cc1ccc(F)cc1)c1ccccc1 [Compound 19b]
Result: 6.17

====

Tested on: HRV-B14
Test: microbe, parasite or virus in culture
Assay type: cell-based, human rhinovirus
Details: Human rhinovirus sp., HRVB14, HeLa R19, read-out: EC50 Exp2
Checkbox rule: EC50 lower than 9 µM = T; EC50 not lower than 9 µM = F.

Task: # TODO verify EC50 < 9 µM strictly for this compound: Cc1ccc(CN(C(=O)c2ccco2)c2ccccc2)cc1 [Compound 19g]
Result: F

Task: # TODO verify EC50 < 9 µM strictly for this compound: O=C(c1ccco1)N(Cc1ccc(C(F)(F)F)cc1)c1ccccc1 [Compound 19d]
Result: T

Task: # TODO verify EC50 < 9 µM strictly for this compound: CC(C)c1ccc(CN(C(=O)c2ccco2)c2ccccc2)cc1 [Compound 19h]
Result: T

Task: # TODO verify EC50 < 9 µM strictly for this compound: O=C(c1ccco1)N(Cc1ccc(F)cc1)c1ccccc1 [Compound 19b]
Result: F

Task: # TODO verify EC50 < 9 µM strictly for this compound: "COc1ccc(N(Cc2ccc(F)cc2)C(=O)c2ccco2)cc1"
Result: F

Task: # TODO verify EC50 < 9 µM strictly for this compound: O=C(c1ccco1)N(Cc1ccc(S(F)(F)(F)(F)F)cc1)c1ccccc1 [Compound 19f]
Result: T
